assay.system: Bcl-2 protein (Recombinant Human Bcl-2 Protein) (Homo sapiens)
Construct: purchased Novus NBP2-34889
Sequence (P10415 whole entry): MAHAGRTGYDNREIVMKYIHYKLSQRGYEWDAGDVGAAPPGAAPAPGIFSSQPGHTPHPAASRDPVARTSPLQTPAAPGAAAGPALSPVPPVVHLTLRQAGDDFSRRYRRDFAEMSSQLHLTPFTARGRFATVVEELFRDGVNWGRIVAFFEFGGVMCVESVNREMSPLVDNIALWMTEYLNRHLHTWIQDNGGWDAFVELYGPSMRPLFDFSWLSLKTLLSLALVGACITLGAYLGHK
assay.name: Binding evaluation of mixture library compounds to Bcl-2 using AS-MS (affinity selection mass spectrometry)
measurement.parameters: AS-MS, mixture of 1200 compounds, Bcl-2; ASMS Ratio(%)=(A−C)/B×100; replicate n = 1
measurement.type: ASMS ratio (%) n = 1

Examples with their reported ASMS ratio (%) n = 1 follow.
CCOc1cncc(-c2cc(CN3CCN(c4ccc(C(=O)NCC(F)(F)F)nn4)CC3)cc(OCC)c2)c1 [B1K082-01] ... 0.0
CCOc1cccc(-c2csc(C(=O)N3CCN(c4ccc(C(=O)NCC56CC7CC(CC(C7)C5)C6)nn4)CC3)c2)c1 [B1A001-01] ... 17.6
CCOc1cncc(-c2ccccc2CCC(=O)N2CCN(c3ccc(C(=O)NCC45CC6CC(CC(C6)C4)C5)cc3)CC2)c1 [B1A034-01] ... 5.2
CCOc1cccc(C#Cc2ccccc2CN2CCN(c3ccc(C(=O)NCC45CC6CC(CC(C6)C4)C5)cc3)CC2)c1 [B1A069-01] ... 8.3
CCOc1cncc(-c2cc(C(=O)N3CCN(c4ccc(C(=O)NCC56CC7CC(CC(C7)C5)C6)cc4)CC3)cc(C(F)(F)F)c2)c1 [B1A040-01] ... 10.4

P = CCOc1cncc(-c2cc(C(=O)N3CCN(c4ccc(C(=O)NCC(F)(F)F)nn4)CC3)cc(C(C)(C)C)c2)c1 [B1K016-01]
Q = CCOc1cccc(-c2cc(CN3CCN(c4ccc(C(=O)NCC(F)(F)F)cc4)CC3)cc(OC(C)C)c2)c1 [B1K057-01]
Prompt: Between P and Q , which one has the lower reported ASMS ratio (%) n = 1 value? Returns: label corresponding to the selected item.
Completion: P
(P: 0.0%, Q: 1.0%)
